System: TTR
Assay: TTR editing in primary human hepatocytes electroporated with Spy Cas9 protein loaded with dgRNAs (Table 7)
Type: cell-based
Conditions: dgRNA electroporated with Spy Cas9 protein (RNP)
Each entry below carries its reported Avg % Insert.
measurement_name: Avg % Insert

1) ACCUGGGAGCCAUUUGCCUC (tested as dual guide RNA, chemistry not given here) [CR003354]; 2.43%
2) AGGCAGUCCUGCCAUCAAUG (tested as dual guide RNA, chemistry not given here) [CR003348]; 11.30%
3) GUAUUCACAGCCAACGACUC (tested as dual guide RNA, chemistry not given here) [CR003373]; 0.83%
4) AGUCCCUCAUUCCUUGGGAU (tested as dual guide RNA, chemistry not given here) [CR003392]; 4.00%
5) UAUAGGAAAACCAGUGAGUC (tested as dual guide RNA, chemistry not given here) [CR005305]; 3.53%
6) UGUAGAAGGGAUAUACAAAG (tested as dual guide RNA, chemistry not given here) [CR003365]; 35.57%
7) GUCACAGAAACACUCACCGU (tested as dual guide RNA, chemistry not given here) [CR005301]; 24.00%
8) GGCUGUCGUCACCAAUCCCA (tested as dual guide RNA, chemistry not given here) [CR003391]; 29.57%
9) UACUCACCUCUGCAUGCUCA (tested as dual guide RNA, chemistry not given here) [CR003372]; 10.47%
10) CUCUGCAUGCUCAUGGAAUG (tested as dual guide RNA, chemistry not given here) [CR003369]; 3.30%
11) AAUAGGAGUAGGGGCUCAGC (tested as dual guide RNA, chemistry not given here) [CR003384]; 1.73%
12) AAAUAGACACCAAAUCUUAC (tested as dual guide RNA, chemistry not given here) [CR003366]; 31.63%
13) AAAUCUUACUGGAAGGCACU (tested as dual guide RNA, chemistry not given here) [CR005306]; 8.07%
14) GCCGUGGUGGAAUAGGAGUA (tested as dual guide RNA, chemistry not given here) [CR003387]; 1.70%
15) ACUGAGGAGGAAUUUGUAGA (tested as dual guide RNA, chemistry not given here) [CR003363]; 7.80%
16) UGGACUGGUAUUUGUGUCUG (tested as dual guide RNA, chemistry not given here) [CR003340]; 5.60%
17) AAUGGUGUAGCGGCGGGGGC (tested as dual guide RNA, chemistry not given here) [CR003375]; 1.27%
18) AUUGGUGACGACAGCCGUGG (tested as dual guide RNA, chemistry not given here) [CR003389]; 27.20%
19) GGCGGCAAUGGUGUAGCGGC (tested as dual guide RNA, chemistry not given here) [CR003378]; 3.87%
20) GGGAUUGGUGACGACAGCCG (tested as dual guide RNA, chemistry not given here) [CR003390]; 15.80%
21) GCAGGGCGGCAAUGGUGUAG (tested as dual guide RNA, chemistry not given here) [CR003380]; 5.27%
22) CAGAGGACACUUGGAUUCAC (tested as dual guide RNA, chemistry not given here) [CR003343]; 75.63%
